test system: UO-31 renal; assay: NCI tumour cell line growth inhibition, 48 h
VALUE_KIND: TGI

COc1ccc(-c2[nH]c3c4c(nc5c(c24)C(=O)CC(C)(C)C5)CC(C)(C)C3)cc1 ... > 100 µM
Cc1csc(-c2nnc(Nc3ccc(Oc4ncccc4-c4ccnc(N)n4)cc3)c3ccccc23)c1 ... > 100 µM
Cc1oc2c(cc(O)c3cc(O)ccc32)c2cccc1-2 ... > 100 µM
COc1cc(S(=O)(=O)Nc2nc(-c3ccc(N4C(=O)C(CC(=O)O)SC4c4cccs4)cc3)cs2)ccc1Cl (centres undefined) ... 45.2 µM
CN(C)c1cc(NN=C(c2ccc(O)cc2)c2ccc(O)cc2)c([N+](=O)[O-])cc1[N+](=O)[O-] ... 20.5 µM

In: Write down measured TGI (UO-31 renal) for this compound. O=S(=O)(N/N=C/c1cccc(/C=N/NS(=O)(=O)c2ccccc2)c1)c1ccccc1
Out: > 100 µM

In: Write down measured TGI (UO-31 renal) for this compound. Nc1ccccc1SC(CC(=O)c1ccccc1)c1cccc([N+](=O)[O-])c1 (centres undefined)
Out: 20.5 µM

In: Write down measured TGI (UO-31 renal) for this compound. O=C(Oc1ccc(Cl)cc1)c1ccccc1Nc1ccnc(C(F)(F)F)c1
Out: > 100 µM

In: Write down measured TGI (UO-31 renal) for this compound. CCC(=O)NC(Nc1cc(C)on1)(C(F)(F)F)C(F)(F)F
Out: > 100 µM
